Origin of values: PubChem BioAssay (NCATS)

Test system: CP286
assayMethodText: qHTS profiling for inhibitors of Plasmodium falciparum proliferation (AID 504749); further: nearly all actives have a fitted effect of over 60% in size
conditionLabel: P. falciparum in erythrocytes, SYBR Green DNA, 72 h; series mostly up to 28.7 µM
Records with an inconclusive call do not appear. Calls of active or inactive are those of the source. The call rests on the fitted dose curve; in most records, active means well fitted inhibition curve with a large enough effect; inconclusive means small, poorly fitted or top-dose-only effect; inactive means flat fitted curve, though single readings scatter.
Returns: one label drawn from class 1 (active), class 0 (inactive)

Illustrative cases are given below, each with its answer.
[[record]]
compound = "O=C(O)c1cc(=O)[nH]c(=O)[nH]1"
classification = "class 0"

[[record]]
compound = "COC(=O)Nc1nc2ccc(Sc3ccccc3)cc2[nH]1"
classification = "class 0"

[[record]]
compound = "CN(C)c1ccc(C(=C2C=CC(=[N+](C)C)C=C2)c2ccc(N(C)C)cc2)cc1"
classification = "class 1"

[[record]]
compound = "CCn1cc(C(=O)O)c(=O)c2cc(F)c(N3CCN(C)CC3)cc21"
classification = "class 1"


Any idea what this test logged for CCCc1cc(C(N)=S)ccn1 ?
class 0

For this compound, state the assay outcome: Cc1nnc(NS(=O)(=O)c2ccc(N)cc2)s1
class 0

Test call for this compound, please: NC(N)=NC(N)=NCCc1ccccc1
class 0

Fill in: this test's call for O=S(=O)(O)CCS is ___
class 0

Given Cn1nnc2c(C(N)=O)ncn2c1=O , state the outcome it received in this test.
class 0

So what was the verdict on CN1CCN(c2c(F)cc3c(=O)c(C(=O)O)cn4c3c2OCN4C)CC1 in this test?
class 0
